The origin of these recorded values is PubChem BioAssay (NCI).

Tested on: MOLT-4 leukemia
Experiment: NCI-60 one-dose screen, 48 h (100 = growth as untreated, 0 = no growth, -100 = all killed)
Details: 10 µM unless noted
Procedure: Growth inhibition of the MOLT-4 human tumor cell line is measured as a screen for anti-cancer activity. Cells are grown in 96 well plates and exposed to the test compound for 48 hours. Compounds are tested at a single concentration, which is 10^-5 M for most compounds. The reported endpoint is percent growth (GI% or GIPRCNT), where numbers from 0 - 100% represent growth inhibition, and numbers from -100% - 0 represent cell death. For example, a value of 40 represents 60% growth inhibition. […]
Compounds without any hit were thinned out: in the full panel of roughly 83,000, 20% have a hit.
Binary call on growth: Fulfilled from 60% upward, Not fulfilled beneath that.

Example entries and their recorded answers appear below.
Exercise: Decide: growth of CCN(CC)CCCN1C(=O)c2c(c(C)c3c(oc4ccc(O)cc43)c2C)C1=O >= 60%?
Solution: Fulfilled

Exercise: Decide: growth of Cc1cn(-c2cc(NC(=O)c3cncc(C#Cc4c(N)ncc5ccc(F)cc45)c3)cc(C(F)(F)F)c2)cn1 >= 60%?
Solution: Not fulfilled

Exercise: Decide: growth of N#C/C(=C\c1ccc(-c2cccc(C(F)(F)F)c2)o1)c1ccccc1 >= 60%?
Solution: Fulfilled

Exercise: Decide: growth of CC1=C(C(=O)Nc2ccccc2)C(c2ccc3c(c2)OCO3)NC(=S)N1 (stereo not given) >= 60%?
Solution: Fulfilled

Exercise: Decide: growth of CC(=O)c1sc2sc(C(C)=O)c(C)c2c1C >= 60%?
Solution: Fulfilled

Continuing:
Exercise: Decide: growth of Cc1ccc(C(=O)Nc2cccc(C#Cc3cccc4[nH]nc(N)c34)c2)cc1C(F)(F)F >= 60%?
Solution: Not fulfilled

Exercise: Decide: growth of COc1ccc(C(=S)N2CCN(c3ccc(Cl)cc3)CC2)cc1 >= 60%?
Solution: Fulfilled

Exercise: Decide: growth of COc1ccc(N2CCC(=S)NC2=S)cc1 >= 60%?
Solution: Fulfilled

Exercise: Decide: growth of COc1ccc(CNc2c3ccccc3nc3ccccc23)c(OC)c1 >= 60%?
Solution: Not fulfilled

###

system: LOX IMVI melanoma; assay: NCI-60 one-dose screen, 48 h (100 = growth as untreated, 0 = no growth, -100 = all killed); settings: 10 µM unless noted
About 83,000 compounds went through this panel and 20% of them were active in at least one assay; those are over-represented in the sample as a whole.
Consider the reported growth of an entry and match it to a band in lo (below 60%), mid (60% to below 90%), hi (90% or more)

Example entries and their recorded answers appear below.
Exercise: Band for CO[C@H]1CC(=O)n2c3ccccc3c3c4c(c5c6ccccc6n1c5c32)C(=O)NC4=O ?
Solution: mid

Exercise: Band for CSC(SC)=C(C#N)c1nc2ccccc2s1 ?
Solution: mid

Exercise: Band for O=C(Nc1cnc(Nc2ccc(N3CCOCC3)nc2)nc1Oc1ccc(C(F)(F)F)cc1)c1ccncc1 ?
Solution: mid

Exercise: Band for CC/C=C\CCC/C=C1/C(=O)C=C[C@@H]1C/C=C\CCCC(=O)OC ?
Solution: lo

Exercise: Band for N#Cc1c(Nc2ccc(N3CCOCC3)cc2)nc(SCC(=O)c2ccc(Br)cc2)nc1-c1ccccc1 ?
Solution: hi

Exercise: Band for C=C1C(=O)O[C@H]2[C@H]1CC/C(COC(=O)c1ccc(C(=O)O)s1)=C\CC[C@@]1(C)O[C@@H]21 ?
Solution: lo

Continuing:
Exercise: Band for COc1ccc(CCN(CC(=O)N(CC(N)=O)C2CCC[C@@H]2OCc2ccccc2)C(=O)CN(C(=O)CN(CCc2ccc(Cl)cc2)C(=O)CN(C(=O)CN(C)Cc2ccccc2F)[C@H](C)C2CCCCC2)[C@H](C)C2CCCCC2)cc1OC (some centres undefined) ?
Solution: lo

Exercise: Band for C=C1C(=O)O[C@H]2[C@H]1CC/C(CNC(=O)c1c[nH]c3ccc(F)cc13)=C\CC[C@@]1(C)O[C@@H]21 ?
Solution: lo

Exercise: Band for N#C/C(=C\c1ccc([N+](=O)[O-])cc1)n1nnc2cc(F)c(F)cc21 ?
Solution: lo

Exercise: Band for COc1cc2nc3sc(C(=O)Nc4ccc(C(=O)OC(C)C)cc4)c(C(=O)Nc4ccc(Cl)cc4C)n3c(=O)c2cc1OC ?
Solution: mid

Exercise: Band for CCOC(=O)c1c(C)nc2ccccc2c1/C=C/c1ccccc1 ?
Solution: mid
